sequences and their reported kdis
Tested on: anti-CD28 scFv (SEQ ID NO: 35)
Sequence (as listed by the source): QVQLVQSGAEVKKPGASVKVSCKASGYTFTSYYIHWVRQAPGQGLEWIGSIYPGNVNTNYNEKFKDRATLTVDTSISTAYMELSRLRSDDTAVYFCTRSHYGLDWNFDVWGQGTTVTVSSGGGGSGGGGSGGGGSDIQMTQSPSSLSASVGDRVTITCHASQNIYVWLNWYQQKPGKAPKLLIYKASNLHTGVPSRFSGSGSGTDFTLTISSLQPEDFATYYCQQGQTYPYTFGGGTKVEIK
protocol: Kinetic binding by bio-layer interferometry (Octet RED96): anti-CD28 scFv to peptides
Design: species or system human
experimental context: BLI Octet RED96; biotinylated peptide loaded on streptavidin sensor; anti-CD28 scFv 100-12.5 nM; 1:1 binding model
Output spec: scalar in s⁻¹, unitless text.

Some sequences with recorded kdis:
MDWCPRDLWSECFF [Peptide-146] ... 0.0031
MDWCPRERWVDCFF [Peptide-156] ... 0.0115
MNWCPKDIWYLCFN [Peptide-140] ... 0.00684
MDWCPLYLWNECFN [Peptide-142] ... 0.00252
MDWCPRSLWHECFA [Peptide-152] ... 0.00201
MDWCPRDMWSECFA [Peptide-148] ... 0.0032
MDWCPVHLWSVCFA [Peptide-155] ... 0.00443
MDWCPRDLWHECFA [Peptide-144] ... 0.00277
MDWCPRHMWNYCFA [Peptide-151] ... 0.00218
MDWCPRDLWHLCFS [Peptide-145] ... 0.00265

Next up:
Quick one: kdis for MDWCPIHLWHVCFN [Peptide-138] ?
0.00295

* * *

System: anti-CD28 scFv (SEQ ID NO: 35)
protocol: Kinetic binding by bio-layer interferometry (Octet RED96): anti-CD28 scFv to peptides
Set-up: species or system human
experimental context: BLI Octet RED96; biotinylated peptide loaded on streptavidin sensor; anti-CD28 scFv 100-12.5 nM; 1:1 binding model
Measured kon of individual entries

MDWCPIDLWNECFF [Peptide-137] ... 51400 M⁻¹ s⁻¹
MDWCPRDLWHECFA [Peptide-144] ... 30000 M⁻¹ s⁻¹
MDWCPRDLWDLCFA [Peptide-143] ... 35900 M⁻¹ s⁻¹
MDWCPRDMWSECFA [Peptide-148] ... 16700 M⁻¹ s⁻¹
MDWCPRDLWSECFF [Peptide-146] ... 38800 M⁻¹ s⁻¹
MDWCPRFMWDECFN [Peptide-150] ... 27100 M⁻¹ s⁻¹
MDWCPRSLWHECFA [Peptide-152] ... 38900 M⁻¹ s⁻¹
MDWCPRERWVDCFF [Peptide-156] ... 41500 M⁻¹ s⁻¹

Report kon for MDWCPRYLWHVCFA [Peptide-153] tested on anti-CD28 scFv (SEQ ID NO: 35).
88900 M⁻¹ s⁻¹

I'm curious: which kon was measured for MHWCPVDLWYLCYN [Peptide-154] tested on anti-CD28 scFv (SEQ ID NO: 35)?
88200 M⁻¹ s⁻¹

// lookup kon | system=anti-CD28 scFv (SEQ ID NO: 35) | key= MDWCPVHLWSVCFA [Peptide-155]
92300 M⁻¹ s⁻¹

Find kon (anti-CD28 scFv (SEQ ID NO: 35)) for the entry MNWCPKDIWYLCFN [Peptide-140]
77000 M⁻¹ s⁻¹

Write down the reported kon of MDWCPIYLWSECFN [Peptide-139] , test system: anti-CD28 scFv (SEQ ID NO: 35).
29000 M⁻¹ s⁻¹

Observed kon on anti-CD28 scFv (SEQ ID NO: 35) for MDWCPRDMWDECFA [Peptide-147] , please.
28400 M⁻¹ s⁻¹

* * *

System: anti-CD28 scFv (SEQ ID NO: 35)
protocol: Kinetic binding by bio-layer interferometry (Octet RED96): anti-CD28 scFv to peptides
Set-up: species or system human
experimental context: BLI Octet RED96; biotinylated peptide loaded on streptavidin sensor; anti-CD28 scFv 100-12.5 nM; 1:1 binding model
measurement kind: kdis (s⁻¹)
All answers are understood in s⁻¹, so give the number only.

Solved cases below.
MDWCPIYLWSECFN [Peptide-139] ... 0.00153
MDWCPRDMWDECFA [Peptide-147] ... 0.00433
MDWCPIDLWNECFF [Peptide-137] ... 0.00369
MHWCPVDLWYLCYN [Peptide-154] ... 0.00186
MDWCPRYLWHVCFA [Peptide-153] ... 0.00187

Notebook entry, anti-CD28 scFv (SEQ ID NO: 35) assay: kdis of MDWCPRFMWDECFN [Peptide-150] = ?
0.00364

Give the reported kdis for MDWCPLHMWHECFS [Peptide-141] (system: anti-CD28 scFv (SEQ ID NO: 35)).
0.00497

* * *

Overview of reported log10 of Kd across a group of sequences:
tested system: anti-CD28 Fab (SEQ ID NOs: 202, 203)
Sequence (as listed by the source): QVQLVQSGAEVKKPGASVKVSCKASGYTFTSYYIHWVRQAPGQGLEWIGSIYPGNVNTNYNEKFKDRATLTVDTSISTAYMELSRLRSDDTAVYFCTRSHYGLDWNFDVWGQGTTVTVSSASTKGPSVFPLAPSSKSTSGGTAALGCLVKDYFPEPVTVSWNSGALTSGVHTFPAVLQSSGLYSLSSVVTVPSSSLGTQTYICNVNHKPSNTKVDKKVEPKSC
Sequence (as listed by the source): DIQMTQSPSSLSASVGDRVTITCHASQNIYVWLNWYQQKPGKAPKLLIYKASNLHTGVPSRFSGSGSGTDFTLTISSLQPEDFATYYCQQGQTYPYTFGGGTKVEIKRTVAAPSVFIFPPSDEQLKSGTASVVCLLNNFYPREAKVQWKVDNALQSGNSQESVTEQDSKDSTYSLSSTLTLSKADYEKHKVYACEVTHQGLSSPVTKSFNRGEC
protocol: Kinetic binding via BLI: peptides to anti-CD28 Fab
experimental context: binding to anti-CD28 Fab
Each number you see is log10 of Kd, and the unit inside the log is nM.

Examples from the recorded data:
YCEGHLPEYLAKCL [Peptide-79, optimization library of Peptide-39] ... 1.65
YCEGHLPEYIEKCL [Peptide-72, optimization library of Peptide-39] ... 2.97
YCAGHAWQYINKCL [Peptide-39] ... 3.31
YCEGHAPEYIAKCL [Peptide-73, optimization library of Peptide-39] ... 2.92

What measured log10 of Kd goes with YCEGHLPEYRNKCL [Peptide-84, optimization library of Peptide-39] ?
2.04

* * *

Test system: anti-CD28 Fab (SEQ ID NOs: 202, 203)
protocol: Kinetic binding via BLI: peptides to anti-CD28 Fab
experimental context: binding to anti-CD28 Fab
// values below are reported t½
Hi! Could you send only the number? It should be in s, unit omitted.

YCEGHLPEYRNKCL [Peptide-84, optimization library of Peptide-39] ... 48
YCEGHLPEYIQKCL [Peptide-86, optimization library of Peptide-39] ... 60
YCEGHAPEYIAKCL [Peptide-73, optimization library of Peptide-39] ... 24
YCEGHLPEYLAKCL [Peptide-79, optimization library of Peptide-39] ... 60

# query: t½ of entry YCEGHLPEYREKCL [Peptide-78, optimization library of Peptide-39]
36

I would be grateful if you could share the reported t½ for YCEGHLPEYIEKCL [Peptide-72, optimization library of Peptide-39] .
30

Any idea what t½ was measured for YCAGHAWQYINKCL [Peptide-39] ?
36

* * *

System: anti-CD28 Fab (SEQ ID NOs: 202, 203)
protocol: Kinetic binding via BLI: peptides to anti-CD28 Fab
experimental context: Table 18, anti-CD28 Fab
measurement kind: Off rate t½ (s)
Express it in s; write the number only.

YCEGHLPEYIQKCL [Peptide-86, optimization library of Peptide-39] ... 54
YCAGHAWQYINKCL [Peptide-39] ... 42
YCEGHLPEYIWKCL [Peptide-87, optimization library of Peptide-39] ... 54
YCEGHLPEYIEKCL [Peptide-72, optimization library of Peptide-39] ... 30
YCEGHAPEYIAKCL [Peptide-73, optimization library of Peptide-39] ... 24

Record request: Off rate t½ value, item YCEGHLPEYLAKCL [Peptide-79, optimization library of Peptide-39]
60

# query: Off rate t½ of entry YCEGHLPEYRNKCL [Peptide-84, optimization library of Peptide-39]
48

May I ask what Off rate t½ has been recorded for YCEGHLPEYREKCL [Peptide-78, optimization library of Peptide-39] ?
36

* * *

Measured Kd, listed per entry.
tested system: anti-CD28 scFv (SEQ ID NO: 35)
protocol: Kinetic binding by bio-layer interferometry (Octet RED96): anti-CD28 scFv to peptides
Set-up: species or system human
experimental context: Table 28; CD28 scFv titrated 100-12.5 nM; 200 nM peptide load; 1:1 model
// note: answer is a bare numeric in nM

GYCHYWGDMVMWCG [Peptide-118] ... 17

Which value of Kd has been reported for MDWCPRERWVDCFF [Peptide-116] in the records?
377

* * *

Collected IC50 values appear next to each entry.
tested system: anti-CD28 Fab (SEQ ID NOs: 202, 203)
protocol: Competition ELISA: peptide inhibition of anti-CD28 Fab binding to plate-bound CD28 (also alanine scanning peptides)
experimental context: Table 17; anti-CD28 Fab fixed at 1 nM, 0-100 μM peptide; read-out: Competition ELISA IC50

LCKPGVPYKWPTCL [Peptide-108, optimization library of Peptide-44] ... > 100 µM

# IC50 lookup, item LCAAGFTYPWPLCL [Peptide-107, optimization library of Peptide-44]
> 100 µM

* * *

tested system: anti-CD28 Fab (SEQ ID NOs: 202, 203)
protocol: Competition ELISA: peptide inhibition of anti-CD28 Fab binding to plate-bound CD28 (also alanine scanning peptides)
experimental context: Table 16; anti-CD28 Fab fixed at 1 nM, 0-100 μM peptide; read-out: Competition ELISA IC50
measurement kind: IC50

Param item = WCWDYKLWVPMTCP [Peptide-37] ; retrieve measured IC50.
> 100 µM
